Source of measurements: ChEMBL document CHEMBL5380801

- EXPERIMENT: Stability in human liver microsomes assessed as parent compound remaining measured after 0.5 hrs in presence of NADPH by LC-MS/MS analysis
- Format: ADME, Microsome
- TEST_CONDITIONS: read-out: Stability
remaining at 0.5 h strictly less than 90% = 1. Otherwise 0.

Reference set (2 entries):
Cc1c(C#CCNC(=O)OC(C)(C)C)cccc1N1CCC(=O)NC1=O
1
CCNC(=O)COc1cccc(N2CCC(=O)NC2=O)c1C
0

Now turn to the next molecule.
Answer whether the molecule Cc1c(OCC(=O)N2CCCCC2)cccc1N1CCC(=O)NC1=O has remaining at 0.5 h strictly less than 90% 1
